Assay: Drug level in mouse brain at 10 mg/kg, po after 7 hrs
Type: ADME, organism-based
Settings: read-out: Drug uptake
RESULT TYPE: concentration at 7 h (nM)

INSERT INTO assay_data (smiles_notation, result_type, quantitative_readout) VALUES
  ('CN(c1ccc(-c2ccc(C#N)cc2O)nn1)C1CC(C)(C)NC(C)(C)C1', 'concentration at 7 h', 2000);

###

The entries below come with measured concentration at 7 h values attached.
Test: Drug level in Sprague-Dawley rat brain at 1 mg/kg, iv or 10 mg/kg, po after 7 hrs
Assay type: ADME, organism-based
Conditions: read-out: Drug uptake
RESULT TYPE: concentration at 7 h (nM)

INSERT INTO results (smiles_notation, result_type, relation_operator, quantitative_readout) VALUES
  ('CN(c1ccc(-c2cc3cnccc3cc2O)nn1)C1CC(C)(C)NC(C)(C)C1', 'concentration at 7 h', '=', 630),
  ('CC1(C)CC(Oc2ccc(-c3ccc(-c4cn[nH]c4)cc3O)nn2)CC(C)(C)N1', 'concentration at 7 h', '=', 914),
  ('CN(c1ccc(-c2ccc(-n3ccc(N)n3)cc2O)nn1)C1CC(C)(C)NC(C)(C)C1', 'concentration at 7 h', '<', 2.4),
  ('CN(c1ccc(-c2ccc(-c3cn[nH]c3)cc2O)nn1)C1CC(C)(C)NC(C)(C)C1', 'concentration at 7 h', '=', 58),
  ('CN(c1ccc(-c2cc3cccnc3cc2O)nn1)C1CC(C)(C)NC(C)(C)C1', 'concentration at 7 h', '=', 68);

###

Experiment: Half life in mouse at 1 mg/kg, iv or 10 mg/kg, po
Type: ADME, organism-based
Conditions: in vivo
This listing pairs compounds with measured half-life.
RESULT TYPE: half-life (h)

INSERT INTO results (smiles_notation, result_type, quantitative_readout) VALUES
  ('CN(c1ccc(-c2cc3ccccc3s2)nn1)C1CC(C)(C)NC(C)(C)C1', 'half-life', 3.2),
  ('CN(c1ccc(-c2ccc(C#N)cc2O)nn1)C1CC(C)(C)NC(C)(C)C1', 'half-life', 4.5),
  ('CN(c1ccc(-c2cc3ccccc3cc2O)nn1)C1CC(C)(C)NC(C)(C)C1', 'half-life', 3.7);

###

Test: Lipophilicity, log D of the compound at pH 7.4
Format: physicochemical
Details: buffer
RESULT TYPE: logD

INSERT INTO measurements (molecule, quantitative_readout) VALUES
  ('CN(c1ccc(-c2ccc(-n3ccc(N)n3)cc2O)nn1)C1CC(C)(C)NC(C)(C)C1', 2.52),
  ('CN(c1ccc(-c2cc3ccccc3cc2O)nn1)C1CC(C)(C)NC(C)(C)C1', 4),
  ('CN(c1ccc(-c2ccc(-c3cn[nH]c3)cc2O)nn1)C1CC(C)(C)NC(C)(C)C1', 2.92),
  ('Oc1cc(-n2cccn2)ccc1-c1ccc(OC2CCNCC2(F)F)nn1 (stereo not given)', 2.59),
  ('CC1(C)CC(Cc2ccc(-c3ccc(-c4cn[nH]c4)cc3O)nn2)CC(C)(C)N1', 2.89);

###

Test: Oral bioavailability in C57BL/6 mouse at 5 mg/kg
Type: ADME, organism-based
Conditions: in vivo
RESULT TYPE: bioavailability (%)

INSERT INTO measurements (smiles_notation, quantitative_readout) VALUES
  ('CC1(C)CC(Nc2ccc(-c3cc4ccccc4s3)nn2)CC(C)(C)N1', 18);
